For each entry below, report its pIC50 value.
biological target: Amine oxidase [flavin-containing] A (Mus musculus, UniProt Q64133); experiment: Inhibition of mouse brain MAO-A
Sequence (Q64133 whole entry): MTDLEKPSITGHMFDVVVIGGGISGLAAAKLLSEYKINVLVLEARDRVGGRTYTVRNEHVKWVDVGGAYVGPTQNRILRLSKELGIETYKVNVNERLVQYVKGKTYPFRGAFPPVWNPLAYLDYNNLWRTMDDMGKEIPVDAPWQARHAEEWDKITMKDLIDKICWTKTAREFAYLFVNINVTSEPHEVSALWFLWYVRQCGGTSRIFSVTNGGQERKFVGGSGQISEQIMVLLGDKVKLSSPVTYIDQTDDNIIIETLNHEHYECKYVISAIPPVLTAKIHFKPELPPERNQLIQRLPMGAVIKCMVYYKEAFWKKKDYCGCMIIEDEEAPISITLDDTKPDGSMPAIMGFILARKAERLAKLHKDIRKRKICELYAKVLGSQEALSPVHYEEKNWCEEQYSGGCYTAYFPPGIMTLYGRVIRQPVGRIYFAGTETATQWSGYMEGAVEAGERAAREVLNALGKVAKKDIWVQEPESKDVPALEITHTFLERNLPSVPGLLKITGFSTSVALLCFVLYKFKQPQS
Bear in mind: pIC50 is minus log10 of a mol/L concentration; give just that figure.

Q: Given "CC(C)=CCC/C(C)=C/COc1ccc2ccc(=O)oc2c1" , state its recorded pIC50.
Ans: 10.46

Q: Entry to check: "C=C(C)[C@H](O)CC/C(C)=C/COc1ccc2ccc(=O)oc2c1"
Ans: 5.89

###

I'd be grateful if you could share measured pIC50 for these entries.
experiment: Inhibition of mouse brain monoamine oxidase using kynuramine as substrate by fluorometric analysis
Please express pIC50 as -log10 of the molar concentration.

Q: I'd like to know its pIC50. The compound in question is O=c1ccc2cc(O)c(O)cc2o1 [ESCULETIN]
Ans: 4.51

Q: Same again, this time with COc1cc2oc(=O)ccc2cc1O [ISOSCOPOLETIN]
Ans: 4.49

Q: Try this compound too: COc1cc2ccc(=O)oc2cc1O [SCOPOLETIN]
Ans: 4.35

###

Target: Amine oxidase [flavin-containing] B (Mus musculus, UniProt Q8BW75)
Sequence (Q8BW75 whole entry): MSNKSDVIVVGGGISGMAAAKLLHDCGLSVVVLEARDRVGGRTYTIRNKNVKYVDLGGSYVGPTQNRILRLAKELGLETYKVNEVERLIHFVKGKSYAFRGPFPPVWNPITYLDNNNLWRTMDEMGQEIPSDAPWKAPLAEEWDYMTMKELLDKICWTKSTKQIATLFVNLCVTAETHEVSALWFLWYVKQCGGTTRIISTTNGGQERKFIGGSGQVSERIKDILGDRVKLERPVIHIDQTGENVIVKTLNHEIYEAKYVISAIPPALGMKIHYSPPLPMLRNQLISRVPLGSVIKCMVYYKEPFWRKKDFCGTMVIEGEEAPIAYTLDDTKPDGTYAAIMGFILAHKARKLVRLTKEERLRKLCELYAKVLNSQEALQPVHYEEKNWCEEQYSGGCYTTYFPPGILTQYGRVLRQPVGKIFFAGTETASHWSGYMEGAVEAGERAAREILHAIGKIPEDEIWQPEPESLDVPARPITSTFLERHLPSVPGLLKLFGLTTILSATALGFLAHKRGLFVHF
Field: pIC50. Provide a value for each of the compounds that follow.
Answer as the number alone; pIC50 is minus log10 of concentration in mol/L.

Q: Missing value: pIC50, Amine oxidase [flavin-containing] B (Mus musculus, UniProt Q8BW75), entry "CC(C)=CCC/C(C)=C/COc1ccc2ccc(=O)oc2c1" . Fill in?
Ans: 6.22

Q: Follow-up entry: "C=C(C)[C@H](O)CC/C(C)=C/COc1ccc2ccc(=O)oc2c1"
Ans: 6.30
